assay: AZD7986 plasma pharmacokinetics; type: in vivo, human; conditions: male, human, plasma, po, Terminal half-life, after a single oral dose
readout_label: half-life

Query: Hello, please tell me recorded half-life for this one: Cn1c(=O)oc2ccc(-c3ccc(C[C@@H](C#N)NC(=O)[C@@H]4CNCCCO4)cc3)cc21 [AZD7986]
Result: 20 to 26 h
